Exercise: state measured inhibition at 10 µM for each of the compounds provided.
Biological target: human CB2 receptor (Homo sapiens)
Construct: expressed in transfected cells; host or cells: human embryonic kidney (HEK) cells, Semliki Forest Virus system, membrane preparations
Sequence (P34972 whole entry): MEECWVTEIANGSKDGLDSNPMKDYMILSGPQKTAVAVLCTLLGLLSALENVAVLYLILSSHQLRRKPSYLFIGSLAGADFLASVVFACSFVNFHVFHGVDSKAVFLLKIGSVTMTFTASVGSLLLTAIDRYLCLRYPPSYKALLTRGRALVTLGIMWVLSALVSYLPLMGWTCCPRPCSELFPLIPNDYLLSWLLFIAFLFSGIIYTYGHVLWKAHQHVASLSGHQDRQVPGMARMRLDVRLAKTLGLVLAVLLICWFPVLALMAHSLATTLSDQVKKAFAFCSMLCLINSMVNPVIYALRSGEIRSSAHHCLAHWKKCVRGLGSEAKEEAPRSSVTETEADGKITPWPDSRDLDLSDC
Experiment: CB2 receptor affinity ([3H]-CP-55,940 displacement, HEK cell membranes)
Format: binding
Details: displacement of [3H]-CP-55,940 at 10 μM
Provide only the numeric value, understood in %.

Req: Which inhibition at 10 µM is listed for CN(NC(=O)c1cnc(OC2CCC2)c(C2CC2)c1)c1ccc(C#N)cc1 [Example 55] ?
Resp: 18

Req: Ok, now O=C(NNCc1ccncc1)c1cnc(OCC(F)(F)F)c(C2CC2)c1 [Example 46]
Resp: 11

Req: Ok, now O=C(NN1CCOCC1)c1cnc(OCC(F)(F)F)c(C2CC2)c1 [Example 32]
Resp: -14

Req: Ok, now O=C(NNc1ccc(F)cc1)c1cnc(OCC2CC2)c(C2CC2)c1 [Example 42]
Resp: 9

Req: Ok, now CN(NC(=O)c1cnc(OCC(F)(F)F)c(-c2ccc(Cl)cc2)c1)c1ccccc1 [Example 5]
Resp: 31

Where do these numbers come from? They come from patent US8648099B2.
